- Species on record: Danio rerio
- Test description: Toxicity against zebrafish embryo assessed as effect on otoliths at 5 ug/ml measured at 96 hrs post fertilization by inverted microscopic analysis
- Format: organism-based
- Condition notes: in vivo
Quantity kind: Activity (%)
Please respond with the number in % and leave the unit unwritten.

Illustrative cases are given below, each with its answer.
Cl.N=C(N)N/N=C/c1ccc(-c2ccc(Br)cc2)s1	0
Cc1ccc(-c2ccc(/C=N/NC(=N)N)s2)cc1.Cl	62.5
Cl.Cl.N=C(N)N/N=C/c1ccc(-c2ccc(/C=N/NC(=N)N)s2)cc1	0

# input for lookup
GET /values?readout=Activity&item= C[C@@H](c1ncncc1F)[C@](O)(Cn1cncn1)c1ccc(F)cc1F
100

---

- Species on record: Danio rerio
- Test description: Toxicity against zebrafish embryo assessed as growth retardation at 5 ug/ml measured at 96 hrs post fertilization by inverted microscopic analysis
- Type: organism-based
- Condition notes: in vivo
The following compounds are listed with their measured Activity values.
Please respond with the number in % and leave the unit unwritten.

Illustrative cases are given below, each with its answer.
Cl.Cl.N=C(N)N/N=C/c1ccc(-c2ccc(/C=N/NC(=N)N)s2)cc1	0
Cl.N=C(N)N/N=C/c1ccc(-c2ccc(Br)cc2)s1	0
C[C@@H](c1ncncc1F)[C@](O)(Cn1cncn1)c1ccc(F)cc1F [VORICONAZOLE]	100

# input for lookup
GET /values?readout=Activity&item= Cc1ccc(-c2ccc(/C=N/NC(=N)N)s2)cc1.Cl
0

---

- Species on record: Danio rerio
- Test description: Toxicity against zebrafish embryo assessed as effect on blood circulation at 5 ug/ml measured at 96 hrs post fertilization by inverted microscopic analysis
- Type: organism-based
- Condition notes: in vivo
Quantity kind: Activity (%)
Please respond with the number in % and leave the unit unwritten.

C[C@@H](c1ncncc1F)[C@](O)(Cn1cncn1)c1ccc(F)cc1F [VORICONAZOLE]	100
Cl.N=C(N)N/N=C/c1ccc(-c2ccc(Br)cc2)s1	0
Cl.Cl.N=C(N)N/N=C/c1ccc(-c2ccc(/C=N/NC(=N)N)s2)cc1	0

GET /values?readout=Activity&item= Cc1ccc(-c2ccc(/C=N/NC(=N)N)s2)cc1.Cl
0

---

- Species: Danio rerio
- Test description: Toxicity against zebrafish embryo assessed as effect on eyes at 2.5 ug/ml measured at 96 hrs post fertilization by inverted microscopic analysis
- Assay type: organism-based
- Condition notes: in vivo
The following compounds are listed with their measured Activity values.
Please respond with the number in % and leave the unit unwritten.

Illustrative cases are given below, each with its answer.
C[C@@H](c1ncncc1F)[C@](O)(Cn1cncn1)c1ccc(F)cc1F [VORICONAZOLE]	100
Cl.Cl.N=C(N)N/N=C/c1ccc(-c2ccc(/C=N/NC(=N)N)s2)cc1	0
Cc1ccc(-c2ccc(/C=N/NC(=N)N)s2)cc1.Cl	0

# input for lookup
GET /values?readout=Activity&item= Cl.N=C(N)N/N=C/c1ccc(-c2ccc(Br)cc2)s1
0

---

The following compounds are listed with their measured mortality at 96 h, 25 ug/ml values.
- Test description: Toxicity against zebrafish embryo assessed as dead embryos at 25 ug/ml measured at 96 hrs post fertilization by inverted microscopic analysis
- Type: organism-based, Danio rerio
- Condition notes: read-out: Activity
Please respond with the number in % and leave the unit unwritten.

Illustrative cases are given below, each with its answer.
Cc1ccc(-c2ccc(/C=N/NC(=N)N)s2)cc1.Cl	100
C[C@@H](c1ncncc1F)[C@](O)(Cn1cncn1)c1ccc(F)cc1F	100
Cl.Cl.N=C(N)N/N=C/c1ccc(-c2ccc(/C=N/NC(=N)N)s2)cc1	3.33

GET /values?readout=mortality at 96 h, 25 ug/ml&item= Cl.N=C(N)N/N=C/c1ccc(-c2ccc(Br)cc2)s1
73.3

---

- Tested on: Danio rerio
- Test description: Toxicity against zebrafish embryo assessed as pericardial edema at 5 ug/ml measured at 96 hrs post fertilization by inverted microscopic analysis
- Type: organism-based
- Condition notes: in vivo
The following molecules are listed with their measured Activity values.
Please respond with the number in % and leave the unit unwritten.

Illustrative cases are given below, each with its answer.
Cl.N=C(N)N/N=C/c1ccc(-c2ccc(Br)cc2)s1	11.11
Cl.Cl.N=C(N)N/N=C/c1ccc(-c2ccc(/C=N/NC(=N)N)s2)cc1	0
C[C@@H](c1ncncc1F)[C@](O)(Cn1cncn1)c1ccc(F)cc1F	100

# input for lookup
GET /values?readout=Activity&item= Cc1ccc(-c2ccc(/C=N/NC(=N)N)s2)cc1.Cl
100

The measurements presented in this section are drawn from ChEMBL document CHEMBL3763135.
